Data provenance is patent US7897602B2.

# Assayed Target: PDGFR-β kinase (Homo sapiens)
# Construct: recombinant N-terminal 6×His-tagged PDGFR-β kinase domain construct expressed by baculovirus; 6xHis (N); made in house
# Test Protocol: PDGFR-β kinase assay (33P incorporation into Poly(Glu-Tyr))
# Format: biochemical
# Condition Parameters: 500 nM test compound
Counter-ions that a name gives are not always drawn.
Recorded Metric: inhibition at 0.5 µM (%)
Your answer is read as %, so omit the unit and give the number.

Ask: Please look up its inhibition at 0.5 µM: CN1CCN(S(=O)(=O)c2ccc3c(c2)/C(=C/c2[nH]c4c(c2CCC(=O)O)C(=O)CCC4)C(=O)N3)CC1 [DCB-70107, hydrochloride]
Reply: 8

* * *

Recorded inhibition at 1 µM values for a group of compounds are listed next.
# Assayed Target: Aurora B kinase (Homo sapiens, UniProt Q96GD4)
# Construct: purchased Cell signaling
# Sequence (Q96GD4 whole entry): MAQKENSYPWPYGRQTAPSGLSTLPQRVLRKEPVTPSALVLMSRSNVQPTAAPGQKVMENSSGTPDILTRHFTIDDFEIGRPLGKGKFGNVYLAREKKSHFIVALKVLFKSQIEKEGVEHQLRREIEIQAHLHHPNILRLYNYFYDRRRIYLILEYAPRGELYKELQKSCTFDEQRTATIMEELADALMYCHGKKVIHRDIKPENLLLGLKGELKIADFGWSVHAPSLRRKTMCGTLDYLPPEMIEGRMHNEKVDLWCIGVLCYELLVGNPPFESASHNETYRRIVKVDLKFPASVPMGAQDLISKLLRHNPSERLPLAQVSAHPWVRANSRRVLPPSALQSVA
# Test Protocol: Aurora B kinase assay ([γ-33P]ATP, CHOCKtide substrate)
# Type: biochemical
# Condition Parameters: 1.0 μM test compound
Form entry: value (%) — number only.

Example entries begin here.
CCOC(=O)CCc1c(/C=C2\C(=O)Nc3ccc(NC(=O)c4ccc(OC)cc4)cc32)[nH]c2c1C(=O)CCC2 | -23
O=C(O)CCc1c(/C=C2\C(=O)Nc3cc(-c4cc(F)cc(F)c4)ccc32)[nH]c2c1C(=O)CCC2 | 17.7
C=CS(=O)(=O)c1ccc2c(c1)/C(=C/c1[nH]c3c(c1CCC(=O)O)C(=O)CCC3)C(=O)N2 | 32.5

Now look at this one.
Ask: # query: inhibition at 1 µM | item `CC(=O)c1c(C)[nH]c(/C=C2\C(=O)Nc3ccc(NS(=O)(=O)c4ccccc4)cc32)c1CCC(=O)N1CCN(C)CC1` | system: Aurora B kinase (Homo sapiens, UniProt Q96GD4)
Reply: 14.8

* * *

# Assayed Target: PDGFR-β kinase (Homo sapiens, UniProt P09619)
# Construct: recombinant N-terminal 6×His-tagged PDGFR-β kinase domain construct expressed by baculovirus; 6xHis (N); made in house
# Sequence (P09619 600-962 limits assumed): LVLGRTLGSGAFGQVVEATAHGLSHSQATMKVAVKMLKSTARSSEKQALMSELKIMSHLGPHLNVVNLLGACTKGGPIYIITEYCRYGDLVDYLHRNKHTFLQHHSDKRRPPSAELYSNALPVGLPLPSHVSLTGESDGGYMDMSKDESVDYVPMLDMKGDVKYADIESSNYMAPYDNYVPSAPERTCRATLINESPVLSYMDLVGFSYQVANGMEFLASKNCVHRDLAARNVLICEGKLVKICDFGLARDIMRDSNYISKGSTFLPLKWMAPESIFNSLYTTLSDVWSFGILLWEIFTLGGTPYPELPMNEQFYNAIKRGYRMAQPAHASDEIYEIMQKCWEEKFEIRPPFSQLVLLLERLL
# Test Protocol: PDGFR-β kinase assay (33P incorporation into Poly(Glu-Tyr))
# Type: biochemical
# Condition Parameters: 500 nM test compound
Recorded Metric: inhibition at 0.5 µM (%)
Numbers only here, please. The scale is %.

CCOC(=O)CCc1c(/C=C2\C(=O)Nc3ccc(NC(=O)Nc4ccc(OC)cc4)cc32)[nH]c2c1C(=O)CCC2 | 14.1
O=C(O)CCc1c(/C=C2\C(=O)Nc3ccc(S(=O)(=O)Cc4ccccc4)cc32)[nH]c2c1C(=O)CCC2 | 43.1
CCOC(=O)CCc1c(/C=C2\C(=O)Nc3ccc(-c4ccc(O)c(OC)c4)cc32)[nH]c2c1C(=O)CCC2 | 30.5

Let us examine a further case.
Ask: Reported inhibition at 0.5 µM, molecule `Cc1ccc(NC(=O)Nc2ccc3c(c2)/C(=C/c2[nH]c4c(c2CCC(=O)O)C(=O)CCC4)C(=O)N3)cc1` : ____
Reply: 40

* * *

Here, each record is paired with measured inhibition at 0.1 µM data.
# Assayed Target: Flt3 kinase (Homo sapiens)
# Construct: recombinant N-terminal 6×His-tagged Flt3 kinase domain construct expressed from baculovirus; 6xHis (N); made in house
# Sequence (P36888 610-943 limits assumed): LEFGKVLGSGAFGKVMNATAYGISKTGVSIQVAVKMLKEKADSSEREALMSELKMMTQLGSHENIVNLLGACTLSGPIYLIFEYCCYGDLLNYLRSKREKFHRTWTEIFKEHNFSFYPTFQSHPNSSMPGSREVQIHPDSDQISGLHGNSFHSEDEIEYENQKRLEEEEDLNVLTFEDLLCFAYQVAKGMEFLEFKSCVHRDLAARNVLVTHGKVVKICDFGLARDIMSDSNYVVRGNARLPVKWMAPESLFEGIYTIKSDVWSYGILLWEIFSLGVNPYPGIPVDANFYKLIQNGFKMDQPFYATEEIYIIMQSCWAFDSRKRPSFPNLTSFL
# Test Protocol: Flt3 kinase assay (33P incorporation into Poly(Glu-Tyr))
# Format: biochemical
# Condition Parameters: 100 nM test compound; read-out: Inhibition at 100 nM (%) Flt-3
Kindly answer with a numeric value in %, unit omitted.

Consider the reported inhibition at 0.1 µM for these compounds:
CNS(=O)(=O)c1ccc2c(c1)/C(=C/c1[nH]c3c(c1CCC(=O)N1CCN(C)CC1)C(=O)CCC3)C(=O)N2 [DCB-70117] | 48.3
CCOC(=O)CCc1c(/C=C2\C(=O)Nc3ccc(NC(=O)Nc4ccccc4)cc32)[nH]c2c1C(=O)CCC2 [DCB-70134] | 40.9
O=C(O)CCc1c(/C=C2\C(=O)Nc3ccc(NS(=O)(=O)c4ccc(F)cc4)cc32)[nH]c2c1C(=O)CCC2 [DCB-70145] | 24

Ask: Suppose we examine the compound O=C(O)CCc1c(/C=C2\C(=O)Nc3cc(-c4cc(F)cc(F)c4)ccc32)[nH]c2c1C(=O)CCC2 [DCB-70101] ; what inhibition at 0.1 µM value has been reported?
Reply: 8.5

Ask: Follow-up entry: O=C(O)CCc1c(/C=C2\C(=O)Nc3ccc(-c4ccc(F)cc4)cc32)[nH]c2c1C(=O)CCC2 [DCB-70109]
Reply: 19.2
